test-target: NR2F6 (Homo sapiens, UniProt P10588)
Construct: expressed in transfected cells; also transient transfection
Sequence (P10588 whole entry): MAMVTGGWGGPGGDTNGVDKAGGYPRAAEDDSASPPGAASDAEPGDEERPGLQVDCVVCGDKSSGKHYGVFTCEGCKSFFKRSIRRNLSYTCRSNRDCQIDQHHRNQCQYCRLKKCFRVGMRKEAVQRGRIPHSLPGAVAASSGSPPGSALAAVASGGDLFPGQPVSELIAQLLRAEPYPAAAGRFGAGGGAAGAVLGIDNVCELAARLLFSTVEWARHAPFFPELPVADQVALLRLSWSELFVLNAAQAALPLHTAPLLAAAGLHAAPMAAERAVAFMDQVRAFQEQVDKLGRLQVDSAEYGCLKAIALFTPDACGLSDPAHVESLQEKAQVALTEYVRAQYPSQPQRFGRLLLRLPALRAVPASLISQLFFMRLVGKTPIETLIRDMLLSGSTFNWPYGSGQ
assay-info: NR2F6 agonist screening, Firefly signal cmpd/DMSO
Type: cell-based
measurement-parameters: 1% FBS; 10 uM
experimental-readout: Firefly, F4/pGL4 for S/B(F4) > 3

(a) CC(C)CCN[C@H]1CS(=O)(=O)C[C@@H]1S(=O)(=O)c1cccs1
(b) COCCCN[C@H]1CS(=O)(=O)C[C@@H]1S(=O)(=O)c1ccc(Cl)cc1
Of the two listed items, which has the higher Firefly, F4/pGL4 for S/B(F4) > 3? First: a Second: b // respond with label for picked entry a
(a: 2.3, b: 1.6)

(1) O=S1(=O)C[C@H](N2CCCCC2)[C@@H](S(=O)(=O)c2cccs2)C1
(2) CCC(C)N[C@H]1CS(=O)(=O)C[C@@H]1S(=O)(=O)c1ccc(Cl)cc1 (stereo partly shown)
Between 1 and 2 , which one shows the smaller Firefly, F4/pGL4 for S/B(F4) > 3 number? // respond with label for picked entry 2
(2: 1.2, 1: 1.9)

====

test-target: NR2F6 (Homo sapiens, UniProt P10588)
Construct: expressed in transfected cells; also transient transfection
assay-info: NR2F6 agonist screening, Firefly signal cmpd/DMSO
Type: cell-based
measurement-parameters: 40 uM; F4
experimental-readout: Firefly F4, cmpd/DMSO (mean)

O=S1(=O)C[C@H](N2CCCCC2)[C@@H](S(=O)(=O)c2ccc(Cl)cc2)C1    0.7

(A) CC1CCN([C@H]2CS(=O)(=O)C[C@@H]2S(=O)(=O)c2ccc(Cl)cc2)CC1
(B) CCCCN[C@H]1CS(=O)(=O)C[C@@H]1S(=O)(=O)c1ccc(Cl)cc1
(C) O=S1(=O)C[C@H](NC2CCCCCC2)[C@@H](S(=O)(=O)c2ccc(Cl)cc2)C1
(D) O=S1(=O)C[C@H](NC2CCCCC2)[C@@H](S(=O)(=O)c2ccccc2)C1
Task field, ranking: reported Firefly F4, cmpd/DMSO (mean), descending order. # output: labels, in the requested order D, C, A, B

(A) CC(=O)N1CCN([C@H]2CS(=O)(=O)C[C@@H]2S(=O)(=O)c2ccc(F)c(C)c2)CC1
(B) O=S1(=O)C[C@H](N2CCCC2)[C@@H](S(=O)(=O)c2cccs2)C1
(C) Cc1cccc(CN[C@H]2CS(=O)(=O)C[C@@H]2S(=O)(=O)c2ccc(Cl)cc2)c1
Task field, ranking: reported Firefly F4, cmpd/DMSO (mean), descending order. # output: labels, in the requested order C, A, B

====

test-target: NR2F6 (Homo sapiens)
Construct: expressed in transfected cells; also transient transfection
assay-info: NR2F6 agonist screening, Firefly signal cmpd/DMSO
Type: cell-based
measurement-parameters: Table 14; 2 uM
experimental-readout: Firefly F4, cmpd/DMSO (mean)

# annotated cases, reported Firefly F4, cmpd/DMSO (mean) shown
O=C(COc1ccccc1C(=O)N1CCOCC1)NCCc1ccccc1 [Compound 22]    1.3
Cc1ccc(NC(=O)c2noc3c2CCCC3)cc1C [Compound C302]    1.2
CCc1cccc(Nc2cnn(-c3nc4ccccc4s3)c(=O)c2Cl)c1 [Compound C7]    0.6
Cc1cc(C)n2nc(CNS(=O)(=O)c3ccc(Cl)cc3)nc2n1 [Compound Z91]    1.0
COc1ccc(-c2cn3cccc(C)c3n2)cc1 [Compound 19]    1.7

(I) Cc1ccc(-c2nc3ccccc3c(=O)[nH]2)cc1 [Compound C3]
(II) Cc1cc(NC(=O)CCS(=O)(=O)c2nc(-c3ccc4c(c3)OCO4)cc(C(F)(F)F)n2)no1 [Compound C1]
(III) COC(=O)c1cnc2c(C)cc(C)cc2c1NCCCN(C)C [Compound Z81]
(IV) CCOC(=O)c1cnc2c(C)cc(C)cc2c1N1CCC(CO)CC1 [Compound Z79]
Task field, ranking: reported Firefly F4, cmpd/DMSO (mean), descending order. # output: labels, in the requested order III, I, IV, II
(III: 2.4, I: 1.5, IV: 0.9, II: 0.5)

====

Test system: HEK293 pGL4
assay-info: Firefly_pGL signal, cmpd/DMSO (pGL4 control cells)
Format: cell-based
measurement-parameters: Homo sapiens, HEK293, Table 14; 2 uM; read-out: Firefly pGL4, cmpd/DMSO (mean)
experimental-readout: fold induction at 2 µM
Would you mind answering with just the numeric figure?

# annotated cases, reported fold induction at 2 µM shown
Cc1ccc(-c2nc3ccccc3c(=O)[nH]2)cc1 [Compound C3]    1.1
Cc1cc(C)c2ncc(C(N)=O)c(NCCCN(C)C)c2c1 [Compound Z83]    1
CCOC(=O)c1cnc2c(C)cc(C)cc2c1N1CCC(CO)CC1 [Compound Z79]    0.8
Cc1ccc(NC(=O)c2noc3c2CCCC3)cc1C [Compound C302]    1.8

Lab note: next compound to report on.
Requested field: fold induction at 2 µM. Item: O=C(Nc1cccc(O)c1)c1cc(-c2ccc(Cl)c(Cl)c2)on1 [Compound C5] 1.3

====

Tested on: Renilla_ERa
assay-info: Renilla signal in ERα counterscreen (Renilla_ERa)
Type: cell-based
measurement-parameters: Table 15; 10 uM; read-out: Renilla ERalpha transient, cmpd/DMSO (mean)
experimental-readout: fold induction at 10 µM
Would you mind answering with just the numeric figure?

Cc1ccc(NC(=O)c2n[nH]c3c2CCCCC3)cc1C    1.1

Requested field: fold induction at 10 µM. Item: "CC(=O)Nc1ccc(NS(C)(=O)=O)c2nonc12" 1

// next record "CCOC(=O)c1cnc2c(C)cc(C)cc2c1NCCCN1CCCCC1" 1.4

// next record "CCOC(=O)c1cnc2c(C)cc(C)cc2c1N1CCC(O)CC1" 0.9

// next record "CCOC(=O)c1cnc2c(C)cc(C)cc2c1N1CCC(C)CC1" 0.8

// next record "COc1ccc(-c2noc(Cn3ncc4ccccc4c3=O)n2)cc1" 1.1

====

test-target: NR2F6 (Homo sapiens, UniProt P10588)
Construct: expressed in transfected cells; also transient transfection
assay-info: NR2F6 agonist screening, Firefly signal cmpd/DMSO
Type: cell-based
measurement-parameters: 0.5 uM; F4
experimental-readout: Firefly F4, cmpd/DMSO (mean)

CC(C)N[C@H]1CS(=O)(=O)C[C@@H]1S(=O)(=O)c1ccc(Cl)cc1 [Compound D118]    1.6
O=S1(=O)C[C@H](NCc2ccncc2)[C@@H](S(=O)(=O)c2cccs2)C1 [Compound D108]    1.0
C[C@@H]1C[C@H](C)CN([C@H]2CS(=O)(=O)C[C@@H]2S(=O)(=O)c2cccs2)C1 [Compound D109]    1.3
O=S1(=O)C[C@H](N2CCCCC2)[C@@H](S(=O)(=O)c2ccc(Cl)cc2)C1 [Compound D123]    1.8
COCCCN[C@H]1CS(=O)(=O)C[C@@H]1S(=O)(=O)c1ccc(Cl)cc1 [Compound D126]    1.0
O=S1(=O)C[C@H](NC2CCCCCC2)[C@@H](S(=O)(=O)c2ccc(Cl)cc2)C1 [Compound D130]    1.4

====

test-target: ERα (Homo sapiens)
Construct: expressed in transfected cells
Sequence (P03372 1-595): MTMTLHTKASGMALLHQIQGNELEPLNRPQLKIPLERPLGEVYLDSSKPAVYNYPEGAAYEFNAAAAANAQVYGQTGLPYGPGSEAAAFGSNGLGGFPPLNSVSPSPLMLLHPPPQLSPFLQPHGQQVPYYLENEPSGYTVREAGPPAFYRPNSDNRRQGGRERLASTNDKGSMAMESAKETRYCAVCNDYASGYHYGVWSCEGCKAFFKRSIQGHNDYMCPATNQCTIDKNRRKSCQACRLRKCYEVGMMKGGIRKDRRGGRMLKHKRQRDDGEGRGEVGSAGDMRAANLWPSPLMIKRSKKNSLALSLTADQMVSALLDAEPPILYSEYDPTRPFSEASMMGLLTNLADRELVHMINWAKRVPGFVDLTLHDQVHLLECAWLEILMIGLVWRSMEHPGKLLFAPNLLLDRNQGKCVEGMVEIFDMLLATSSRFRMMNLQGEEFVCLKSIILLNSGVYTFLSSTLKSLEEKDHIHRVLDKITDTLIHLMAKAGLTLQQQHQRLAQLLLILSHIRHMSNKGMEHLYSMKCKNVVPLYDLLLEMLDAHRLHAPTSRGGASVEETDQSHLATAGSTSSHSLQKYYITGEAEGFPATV
assay-info: Counterscreening, Firefly signal with ERα transient transfection (Firefly_ERa)
Type: cell-based
measurement-parameters: ERα transient transfection, 10 μM, repeat 2
experimental-readout: Firefly_ERa, cmpd/DMSO repeat 2

Nc1nonc1-c1noc(-c2cccc(COc3ccc(Cl)cc3Cl)c2)n1 [Compound 23]    1.8
O=C(Nc1cccc(O)c1)c1cc(-c2ccc(Cl)c(Cl)c2)on1 [Compound C5]    2.0
Cc1ccnc(NC(=O)c2cc3sc4ccccc4c3s2)c1 [Compound 20]    1.7
O=C(Nc1ccc(Cl)cn1)c1ccc(I)cc1 [Compound 18]    1.9
COCCNC(=O)c1ccc2c(c1)N=C(C)c1cc(C)ccc1S2 [Compound C8]    1.2

(A) CCOC(=O)c1cnn2c(-c3ccc(Cl)cc3)ccnc12 [Compound C4]
(B) O=c1[nH]c(CS(=O)(=O)c2ccccc2)nc2sc3c(c12)CCCC3 [Compound 25]
Of the two listed items, which has the higher Firefly_ERa, cmpd/DMSO repeat 2? First: A Second: B // respond with label for picked entry A
(A: 1.7, B: 0.7)

(1) CCn1c2c(c(=O)[nH]c1=O)C(c1ccc(C(C)C)cc1)C1=C(N2)c2ccccc2C1=O (stereo not drawn) [Compound 21]
(2) O=C(COc1ccccc1C(=O)N1CCOCC1)NCCc1ccccc1 [Compound 22]
Of the two listed items, which has the higher Firefly_ERa, cmpd/DMSO repeat 2? First: 1 Second: 2 // respond with label for picked entry 2
(2: 2.2, 1: 1.0)
